Assay: bead-bound aptamer fluorescence quenching artefacts – biochemical, single concentration, cherry pick 2, flow cytometry, artefact control for GRK2 aptamer binding project, confirmation (AID 588494);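 also: labelled aptamer on streptavidin beads without GRK2 as a quench counter-screen; 100% = bead fluorescence of DMSO wells and lower means quenching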
Conditions: carboxyfluorescein RNA aptamer beads, at 10 µM, stronger effect = lower value
The other results are listed elsewhere or left out. Activity calls are given as the source filed them.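 The calls were made as follows: active = response vs DMSO under 50%, meaning signal dropped by over half, treated as fluorescence quencher; inconclusive = no clear call, values can overlap the other calls; inactive = the rest.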
assay.metric: fluorescence response vs DMSO

Solved cases below.
>>> reading("COCCn1c(N)c(NCc2ccccc2)c(=O)[nH]c1=O")
"103% (inactive)"
>>> reading("NC(=O)[C@H]1CC2(CC(c3cccc(NC(=O)[C@H]4CCC(=O)N4)c3)=NO2)CN1C(=O)c1ccccc1C(=O)c1ccccc1 (stereo partly drawn)")
"101% (inactive)"
>>> reading("COc1cccc(OC)c1C(=O)Nc1ccc(Cc2ccncc2)cc1")
"98% (inactive)"

Batch request: fluorescence response vs DMSO per item, same order as input.
1. CN=C(Nc1cccc(S(=O)(=O)N2CCOCC2)c1)c1ccccc1
2. COc1ccccc1C(=O)N(Cc1ccc(C)o1)C1CCS(=O)(=O)C1 (stereo not drawn)
3. CC1Sc2ccc(S(=O)(=O)CCC(=O)NCc3ccccc3Cl)cc2NC1=O (stereo not drawn)
4. CC(=O)c1ccc(N2CCN(C(=O)c3ccc4nc[nH]c4c3)CC2)cc1
5. COc1cc([N+](=O)[O-])cc([N+](=O)[O-])c1NC(=O)N1CCOCC1

Resp:
["110% (inactive)", "98% (inactive)", "100% (inactive)", "102% (inactive)", "103% (inactive)"]

Batch request: fluorescence response vs DMSO per item, same order as input.
1. CCOCCCNC(=O)c1ccc(CS(=O)(=O)c2cccc(C(F)(F)F)c2)o1
2. O=C(NCCCN1CCCCCC1)c1ccc(N2CCCC2=O)cc1
3. Cc1nnc(SCC(=O)N2c3ccccc3C(C)(c3ccc(Cl)cc3)CC2(C)C)s1 (stereo not drawn)
4. O=C(C1CCCN(S(=O)(=O)c2ccc([N+](=O)[O-])cc2)C1)N1CCCCC1 (stereo not drawn)
5. COc1ccc(Cl)cc1NC(=O)CCS(=O)(=O)c1ccc(Br)cc1
6. O=C(NC1C2CC3CC(C2)CC1C3)c1ccc(N2CCNCC2)c([N+](=O)[O-])c1 (stereo not drawn)

Resp:
["103% (inactive)", "100% (inactive)", "100% (inactive)", "103% (inactive)", "101% (inactive)", "101% (inactive)"]

Here are 2 compounds. What values of fluorescence response vs DMSO were reported for them?
1. O=C(CCS(=O)(=O)c1ccccc1)NC1CCCC1
2. Cc1ccc(S(=O)(=O)CC(=O)Nc2sc(C)c(C)c2C(N)=O)cc1

Resp:
94% (inactive)
103% (inactive)

I need fluorescence response vs DMSO for every entry listed below, if you could help.
1. CCOCCc1c(O)nc(SCC(=O)NCc2ccco2)[nH]c1=O
2. CCc1nn(CCCN2CCN(c3cccc(Cl)c3)CC2)c(=O)n1CCOc1ccccc1

Resp:
100% (inactive)
100% (inactive)

Reference for the values: PubChem BioAssay AID588494
